Reference for the values: PubChem BioAssay AID1241

Assay method text: NF-kB promoter reporter activators, neuronal cells, dose response, cell-based, SH-SY5Y, luciferase (AID 1241)
Condition context: fold induction
Reported property: pEC50
Numbers only, as −log10 of the molar value.

Known results for molecules:
Molecule	pEC50
CC(=O)c1c(C)[nH]c(C(=O)Nc2ccc3c(c2)OCCO3)c1C	5.28
O=C(Nc1nc2ccccc2[nH]1)c1cc2ccccc2o1	5.91
CCOc1ccc(/C=N/Nc2ccccn2)cc1	5.99
Cc1ccc(-c2nnc(-c3cccs3)o2)cc1	5.55
COC(=O)c1ccc(-c2nc3ccc(C)cc3o2)cc1	5.48
Fc1cccc(F)c1CSc1nc2ccccc2[nH]1	5.36
N#C/C(=N\Nc1ccccc1[N+](=O)[O-])C(=N)N1CCCCC1	5.16
Oc1cccc(-c2nc3ccccc3s2)c1	5.39
CCOC(=O)C1CCN(Cc2ccc(O)c3ncccc23)CC1	5.60
COc1cccc(-c2cc(C(=O)Nc3cccc(O)c3)no2)c1	6.30

Items follow; give pEC50 for each.
1. Nc1cccn2c(-c3ccc(Cl)cc3)cnc12
2. COc1ccc2c(=O)c(-c3nc(C)cs3)coc2c1
3. COc1ccccc1/C=C/C(=O)Nc1ccc2c(c1)OCCO2
4. COc1ccc(C2CC(c3c(O)cc(C)oc3=O)=NCCS2)c(OC)c1 (stereo unspecified)
5. CC(C)(C)c1ccc(C(=O)Nc2cnccn2)cc1
6. Cc1cccc(-c2cc3c(nn2)-c2ccccc2C3=O)c1

A)
1: 5.44; 2: 5.97; 3: 5.92; 4: 5.63; 5: 5.95; 6: 5.59

---

For each record, write down the corresponding EC50.
Assay method text: NF-kB promoter reporter activators, neuronal cells, dose response, cell-based, SH-SY5Y, luciferase (AID 1241)
Condition context: fold induction

Known results for compounds:
Smiles text	EC50
O=C(/C=C/c1c[nH]c2ccccc12)c1ccccc1	5440 nM
O=C(c1cnn(-c2ccccc2)c1)c1ccccc1O	1700 nM
Cc1cc(C(=O)Nc2nc3c(s2)CCCC3)cs1	1630 nM
Cc1ccc(CN=C2Nc3ccccc3CS2)cc1	1190 nM
CCOC(=O)c1c(N)sc(C(=O)Nc2ccccc2)c1C	1930 nM

Items follow; give EC50 for each.
1. Brc1ccccc1-c1nc(-c2ccccc2)no1
2. Cc1ccnc(NS(=O)(=O)c2ccc(NC(=O)c3ccc([N+](=O)[O-])s3)cc2)n1
3. Cc1cccc(NC(=O)/C=C/c2ccc3c(c2)OCO3)n1

A)
1. 2080 nM
2. 5770 nM
3. 2510 nM

Items follow; give EC50 for each.
1. CC(=O)Nc1ccc(-c2cc3ccccc3o2)cc1
2. O=C(/C=C\c1ccccc1)Nc1nccs1
3. O=C(/C=C/c1ccco1)N1CCc2ccccc21
4. Cc1nn2cc(-c3ccccc3)nc2s1
5. O=[N+]([O-])c1cc(Cl)ccc1-c1nc(-c2ccccc2)no1
6. C/C(=N\Nc1nc2ccccc2[nH]1)c1cccs1
7. Cc1ccccc1Nc1nc(N)c2ccccc2n1
8. N/C(=N\N=C\c1ccc2c(c1)OCO2)c1nonc1N

A)
5560 nM
1070 nM
1040 nM
2030 nM
3200 nM
2800 nM
1990 nM
277 nM

Items follow; give EC50 for each.
1. CC(C)(C)c1ccc(C(=O)/C=C2\NC(=O)CS2)cc1
2. Cc1ccsc1/C=N/Nc1nc2ccccc2[nH]1
3. Cc1nn(-c2ccccc2)c(Cl)c1/C=N/Nc1ccc(Cl)c(C(=O)O)c1
4. O=C(Nc1cnc2ccccc2c1)c1ccco1
5. Cc1csc(NC(=O)c2cc3c(s2)CCC3)n1
6. Fc1ccc(Nc2ccc3ccccc3n2)c(F)c1
7. O=C(Nc1ccc(Cl)cn1)c1cc2ccccc2o1

A)
1. 1140 nM
2. 8260 nM
3. 11300 nM
4. 1380 nM
5. 1050 nM
6. 698 nM
7. 2430 nM

---

Assay method text: NF-kB promoter reporter activators, neuronal cells, dose response, cell-based, SH-SY5Y, luciferase (AID 1241)
Condition context: fold induction
Reported property: EC50

Items follow; give EC50 for each.
1. O=[N+]([O-])c1ccc(C2Oc3ccccc3C3CC(c4ccccc4)=NN32)s1 (stereo unspecified)
2. CCNC(=O)O/N=C(\C)c1sc(-c2ccc(Cl)cc2)nc1C
3. COc1ccc2nc(SCC(C)=O)c(C#N)cc2c1
4. COc1cc(SC)ccc1C(=O)Nc1ccc2c(c1)OCO2
5. CSc1ccc(/C=N/Nc2ccc(Cl)c(C(=O)O)c2)cc1
6. Nc1nc(-c2cccnc2)nc2sc3c(c12)CCCC3

A)
1: 12.2 µM; 2: 1.63 µM; 3: 1.9 µM; 4: 1.29 µM; 5: 5.91 µM; 6: 6.84 µM

---

Assay method text: NF-kB promoter reporter activators, neuronal cells, dose response, cell-based, SH-SY5Y, luciferase (AID 1241)
Condition context: fold induction
Reported property: EC50

Compound	EC50
CC(=O)Nc1nc2ccc(-c3nc4ccccc4o3)cc2s1	1.46 µM

Items follow; give EC50 for each.
1. CCOc1cccc2cc(-c3csc(NC(=O)CCC(=O)NCCN4CCCCC4C)n3)c(=O)oc12 (stereo unspecified)
2. Fc1ccccc1/C=C/c1ccc2ccccc2n1
3. Cc1ccc(NC(=O)c2cc3c(s2)CCCC3)cc1
4. S=C(Nc1ccccn1)c1ccccn1

A)
1: 2.76 µM; 2: 0.319 µM; 3: 10.4 µM; 4: 2.03 µM

Items follow; give EC50 for each.
1. COC(=O)c1cccc(NC(=O)c2onc3c2CCCC3)c1
2. CC(=O)Nc1ccc2nc(-c3ccccc3)cn2c1

A)
2.04 µM
2.7 µM

---

For each record, write down the corresponding EC50.
Assay method text: NF-kB promoter reporter activators, neuronal cells, dose response, cell-based, SH-SY5Y, luciferase (AID 1241)
Condition context: fold induction

Items follow; give EC50 for each.
1. Cn1cccc1C(=O)C(=O)Nc1ccc(Cl)cc1
2. Cc1nn(-c2ccccc2Cl)c(Cl)c1/C=N/Nc1cccc(C(=O)O)c1
3. O=C(NC(=S)Nc1ccc2c(c1)OCCO2)c1ccccc1F
4. CCOC(=O)c1sc(NC(=O)Nc2ccccc2)cc1C
5. c1ccc(Nc2nc(-c3ccncc3)cs2)nc1
6. C(=N\Nc1nc2ccccc2s1)/c1ccco1
7. COc1ccc(CSc2nc3ccccc3[nH]2)cc1

A)
["25200 nM", "4370 nM", "1740 nM", "753 nM", "1640 nM", "2320 nM", "4290 nM"]

---

For each record, write down the corresponding pEC50.
Assay method text: NF-kB promoter reporter activators, neuronal cells, dose response, cell-based, SH-SY5Y, luciferase (AID 1241)
Condition context: fold induction
Numbers only, as −log10 of the molar value.

Known results for compounds:
Smiles text	pEC50
O=C(Nc1ccc(N2CCOCC2)c(Cl)c1)c1cccc(F)c1	5.07
O=C(Nc1ccc2c(c1)OCCO2)c1ccc(Br)s1	6.22
CCOc1ccc2nc(N3CCCCCC3)sc2c1	5.43
Nc1cccn2c(-c3ccc(Cl)c(Cl)c3)cnc12	5.57
COc1ccc(-c2cn3ccc4ccccc4c3n2)cc1	6.15

Items follow; give pEC50 for each.
1. N/C(=N\OC(=O)c1cccc(Cl)c1)c1ccccn1
2. c1cn2cc(-c3ccc4c(c3)OCO4)nc2s1

A)
5.71
5.73

---

Assay method text: NF-kB promoter reporter activators, neuronal cells, dose response, cell-based, SH-SY5Y, luciferase (AID 1241)
Condition context: fold induction
For each record, write down the corresponding pEC50.
Give bare numbers, as −log10 of the molar value.

Smiles text	Reported measurement
Fc1ccccc1CSc1nc2ccccc2[nH]1	5.50
COc1ccc(Nc2nc(-c3cccs3)cs2)c(OC)c1	5.63
Cc1ccc(/C=N/Nc2cccc3cccnc23)c(O)c1	5.02
Nc1nc(-c2ccc(-c3ccccc3)cc2)cs1	5.62
Cc1ccc2nc(-c3ccc(NC(=O)CCN4C(=O)c5ccccc5C4=O)cc3)sc2c1	6.81
Clc1cc(Cl)c(OCc2nc(-c3ccccn3)no2)cc1Cl	5.73

Could you now look at the following molecule, please?
Quick note, pEC50 for CCCCCCCOc1ccc(OC(=O)c2ccncc2)cc1 landed at 6.97

---

For each record, write down the corresponding EC50.
Assay method text: NF-kB promoter reporter activators, neuronal cells, dose response, cell-based, SH-SY5Y, luciferase (AID 1241)
Condition context: fold induction

Molecule	EC50
CN=c1scc(-c2ccccc2F)n1/N=C(\C)c1cccnc1	24400 nM
O=C(Nc1ccc2c(c1)OCO2)c1ccc2c(c1)OCO2	1230 nM
Cc1sc(NC(=O)c2ccc(Cl)s2)c(C(N)=O)c1C	1700 nM
COc1ccc(C(=O)/C=C/Nc2cccc(O)c2)cc1	986 nM

Items follow; give EC50 for each.
1. O=C(OCC(=O)c1cccs1)c1ccccc1
2. O=C(Nc1ccc(Cl)c(Cl)c1)Nc1ccccc1C(=O)O

A)
["12600 nM", "1670 nM"]

Items follow; give EC50 for each.
1. N/C(=N\OC(=O)COc1ccc(Br)cc1Cl)c1ccccn1
2. CCNc1nc(N)nc(-c2cc(Cl)ccc2O)n1
3. O=C(Nc1ccc2c(c1)CCC2)c1cc2ccccc2o1
4. C(=N\NC1=Nc2cccc3cccc1c23)/c1ccccn1
5. COc1ccc(/C=N/Nc2nc3ccccc3o2)cc1O
6. CC(C)(C)C(=O)Nc1nc(-c2ccccc2)ns1
7. O=c1oc2ccccc2cc1-c1nnc(NCc2ccco2)s1
8. Cc1csc(NC(=O)c2ccc(C)c([N+](=O)[O-])c2)n1

A)
1060 nM
847 nM
2410 nM
7600 nM
2140 nM
2730 nM
1330 nM
2120 nM

Items follow; give EC50 for each.
1. O=C(Cc1cccs1)Nc1nc2c(s1)CCCC2
2. CC(C)(C)C(=O)Nc1nc(-c2ccc3c(c2)OCO3)cs1
3. O=C(Nc1nc2ccccc2s1)c1ccc(F)cc1
4. c1ccc(-c2noc(-c3cccc4ccccc34)n2)cc1
5. CN(C)c1ccc(C(=O)c2ccc(N(C)C)c3ccccc23)cc1
6. O=C(/C=C/c1ccc(Cl)cc1)Nc1nccs1
7. O=C(NC1CCCCCCC1)c1ccc2c(c1)OCO2

A)
1. 20200 nM
2. 2660 nM
3. 1200 nM
4. 15600 nM
5. 221 nM
6. 793 nM
7. 11000 nM
